// inhibition of phosphatase activity of recombinant SHP-1 lookup, one value per entry
# TGT: recombinant SHP-1 (Homo sapiens, UniProt P29350)
# Construct: Recombinant protein of SHP-1 PTPase catalytic domain was described
# Sequence (P29350 244-515 limits assumed): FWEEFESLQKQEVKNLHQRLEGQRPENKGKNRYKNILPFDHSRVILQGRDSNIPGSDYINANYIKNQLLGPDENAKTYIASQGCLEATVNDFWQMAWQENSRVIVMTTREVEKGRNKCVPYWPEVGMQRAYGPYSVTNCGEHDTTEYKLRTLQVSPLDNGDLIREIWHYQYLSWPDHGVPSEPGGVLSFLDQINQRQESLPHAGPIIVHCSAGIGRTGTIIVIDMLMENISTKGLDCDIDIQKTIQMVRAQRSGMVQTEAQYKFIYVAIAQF
# PROTOCOL DETAILS: rapid in vitro SHP-1 PTPase assay (DIFMUP substrate)
# Type: biochemical
# EXPERIMENTAL CONDITIONS: 1 μg/well; FIG. 12A

- COMPOUND: "O=C1C=C(c2ccccc2)C(=O)c2ccccc21 [L5a3]"
  RESULT: "~80%"

Now for a further compound.
inhibition of phosphatase activity of recombinant SHP-1 lookup needed for O=C1C=C(c2ccccc2Cl)CC(=O)C1 [L5a10] , thanks.
~5%
